- SUBJECT OF TEST: TEAD3 TAZ (amino acids 13-57) (Homo sapiens, UniProt Q99594)
- Sequence (Q99594 173-435 limits assumed): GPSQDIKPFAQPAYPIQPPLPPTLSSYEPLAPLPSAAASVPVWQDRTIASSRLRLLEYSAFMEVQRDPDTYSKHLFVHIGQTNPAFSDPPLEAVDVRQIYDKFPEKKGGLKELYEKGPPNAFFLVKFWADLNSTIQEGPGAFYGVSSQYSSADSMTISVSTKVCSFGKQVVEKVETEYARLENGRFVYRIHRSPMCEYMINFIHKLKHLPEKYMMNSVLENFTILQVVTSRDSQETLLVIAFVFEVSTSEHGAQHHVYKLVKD
- MEASUREMENT PROTOCOL: TEAD3-TAZ HTRF (TR-FRET) protein-protein interaction assay
- SETTINGS: TEAD3-TAZ HTRF, TR-FRET 665 nm/615 nm; read-out: TEAD3 TAZ HTRF combined: EC50
So I've got a bunch of compounds here, and I need their pEC50 values.
Convention used: pEC50 is expressed as -log10 of the molar concentration.

**Query** Requested field: pEC50. Item: C[C@@H](CO)c1nn2c(=O)cc(-c3ccc(C4CCCCC4)cc3)[nH]c2c1C(=O)N1CC(CF)C1 (single isomer, unassigned) [Enantiomer B, Example 55]
**Result** 7.00

**Query** Requested read-out: pEC50. Entry: `O=C(c1c(-c2ncccn2)nn2c(=O)cc(-c3ccc(C4(C5CCCC5)CC4)cc3)[nH]c12)N1CC(CF)C1`
**Result** 7.05

**Query** Entry O=C(c1c(C2CNCCO2)nn2c(=O)cc(-c3ccc(C4CCCCC4)cc3)[nH]c12)N1CC(CF)C1 (single isomer, unassigned) [Enantiomer B, Example 63] has what pEC50?
**Result** 6.80
